All values here come from ChEMBL document CHEMBL1152833.

# System: Mus musculus
# assay.protocol: Anticonvulsant activity in ip dosed Swiss albino mouse assessed as minimum drug concentration required for inhibition of pentylenetetrazole-induced seizures in half or more of mouse after 4 hrs by scPTZ test
# Type: functional
endpoint.label: Activity (mg/kg)
One number for each entry, in mg/kg.

| compound | Activity, mg/kg |
| --- | --- |
| CCC1(c2ccccc2)C(=O)NC(=O)NC1=O | 30 |

Could I get Activity for every one of these entries?
1. COc1cc(/C=N/NC(=O)Nc2nc3c(ccc4ccccc43)s2)cc(OC)c1OC
2. O=C(N/N=C/c1ccccc1)Nc1nc2c(ccc3ccccc32)s1
3. NC(=O)N1c2ccccc2C=Cc2ccccc21 [CARBAMAZEPINE]

OUT:
300
300
300

###

Exercise: for every item that follows, state its recorded Activity.
# Test system: Mus musculus
# assay.protocol: Antioxidant activity against PTZ-induced decrease in superoxide dismutase activity in Swiss albino mouse brain assessed as enzyme units per mg of protein causing 50% inhibition in NBT reduction rate at 100 mg/kg, ip administered 30 mins before PTZ challenge measured after 4 hrs
# Type: functional
# measurement.parameters: route intraperitoneal
One number for each entry.

For every item in the list below, what is its measured Activity?
1. CCCC(CCC)C(=O)O
2. O=C(N/N=C/c1ccc([N+](=O)[O-])cc1)Nc1nc2c(ccc3ccccc32)s1
3. C1CCc2nnnn2CC1
4. O=C(N/N=C/c1ccc(F)cc1)Nc1nc2c(ccc3ccccc32)s1
5. O=C(N/N=C/c1ccc(Br)cc1)Nc1nc2c(ccc3ccccc32)s1

OUT:
1. 65
2. 58
3. 42
4. 57
5. 60

###

# System: Mus musculus
# assay.protocol: Neurotoxicity in ip dosed Swiss albino mouse assessed as minimum drug concentration required for falling off the rotarod by half or more of mouse after 4 hrs by rotarod test
# Type: toxicity, organism-based
# measurement.parameters: in vivo
I'd appreciate it if you could supply Activity values for the items below.
Answers are plain numbers, in mg/kg.

Some solved cases for reference:
| mol.smiles | endpoint.label | unit.info | value.observed |
| --- | --- | --- | --- |
| O=C(N/N=C1\C(=O)Nc2ccccc21)Nc1nc2c(ccc3ccccc32)s1 | Activity | mg/kg | 300 |
| CN(C)c1ccc(/C=N/NC(=O)Nc2nc3c(ccc4ccccc43)s2)cc1 | Activity | mg/kg | 300 |
| O=C(N/N=C/c1ccc([N+](=O)[O-])cc1)Nc1nc2c(ccc3ccccc32)s1 | Activity | mg/kg | 300 |
| CCC1(c2ccccc2)C(=O)NC(=O)NC1=O | Activity | mg/kg | 300 |

Now examine the next entry.
Recorded Activity (molecule O=C(N/N=C/c1ccccc1[N+](=O)[O-])Nc1nc2c(ccc3ccccc32)s1 ): 100

###

# Tested on: Mus musculus
# assay.protocol: Anticonvulsant activity in ip dosed Swiss albino mouse assessed as minimum drug concentration required for inhibition of pentylenetetrazole-induced seizures in half or more of mouse after 4 hrs by scPTZ test
# Type: functional
Task for the reader: assign each of the following compounds its reported Activity.
One number for each entry, in mg/kg.

Batch lookup, Activity per entry.
1. O=C(N/N=C/c1ccc(Br)cc1)Nc1nc2c(ccc3ccccc32)s1
2. COc1cc(/C=N/NC(=O)Nc2nc3c(ccc4ccccc43)s2)ccc1O
3. CN(C)c1ccc(/C=N/NC(=O)Nc2nc3c(ccc4ccccc43)s2)cc1
4. O=C(N/N=C/c1ccccc1[N+](=O)[O-])Nc1nc2c(ccc3ccccc32)s1
5. O=C(N/N=C/c1ccccc1O)Nc1nc2c(ccc3ccccc32)s1
6. O=C(N/N=C/c1ccc(F)cc1)Nc1nc2c(ccc3ccccc32)s1
7. C/C(=N\NC(=O)Nc1nc2c(ccc3ccccc32)s1)c1ccc(C)cc1

OUT:
[100, 300, 300, 300, 300, 100, 300]

For each of the items listed, what is its Activity?
1. O=C(N/N=C/c1ccccc1Cl)Nc1nc2c(ccc3ccccc32)s1
2. O=C(N/N=C/c1ccc([N+](=O)[O-])cc1)Nc1nc2c(ccc3ccccc32)s1
3. C/C(=N\NC(=O)Nc1nc2c(ccc3ccccc32)s1)c1ccccc1

OUT:
[300, 300, 300]
